system: OVCAR3 cells; experiment: MTT cell proliferation/viability assay, OVCAR3 ovarian cancer cells; format: cell-based; details: Homo sapiens, OVCAR-3, 48 hours, MTT, DMSO alone controls = 100% viability, Trial 1, read-out: Trial 1 OVCAR3 (viability)
Rule: measured viability at 1 µM below 40% gets TRUE; anything equal to or greater than 40% gets FALSE.

compound: CC1(C)CC(=O)C2=C(C1)Nc1c(c(-c3ccccc3)nn1-c1ccc(F)cc1)C2c1ccc(C(C)(C)C)cc1 (stereo not shown) [Compound 963924]
category.label: FALSE

viability at 1 µM strictly < 40% for this compound? COc1ccc(OC)c(C2C3=C(CC(C)(C)CC3=O)Nc3c2c(C(C)(C)C)nn3-c2ccc(C)cc2C)c1 (stereo not shown) [Compound 964232]
FALSE

Entry to check: Cc1ccc(C2C3=C(CC(C)(C)CC3=O)Nc3c2c(C(C)(C)C)nn3-c2cccc(F)c2)cc1 (stereo not shown) [Compound 964352]
TRUE

Entry to check: CC1(C)CC(=O)C2=C(C1)Nc1c(c(-c3ccccc3)nn1-c1cccc(F)c1)C2c1ccc(C(F)(F)F)cc1 (stereo not shown) [Compound 964661]
TRUE

Entry to check: Cc1cccc(-n2nc(C(C)(C)C)c3c2NC2=C(C(=O)CC(C)(C)C2)C3c2ccc(C(C)(C)C)cc2)c1C (stereo not shown) [Compound 964336]
TRUE

Entry to check: COc1cc(OC)cc(C2C3=C(CC(C)(C)CC3=O)Nc3c2c(C(C)(C)C)nn3-c2ccc(Cl)cc2)c1 (stereo not shown) [Compound 964144]
FALSE

---

biological target: PI 3-K alpha (Homo sapiens, UniProt P42336); construct: made in house; host or cells: Sf9 cells, baculovirus expression system; constructs from the lab of Dr. Alex Toker, Harvard University; assay: PI 3-K activity assay, IC50 determination (AlphaScreen luminescent or Fluorescence Polarization); assay type: biochemical; conditions: inhibition of enzyme activity in vitro
Sequence (P42336 whole entry, species assumed): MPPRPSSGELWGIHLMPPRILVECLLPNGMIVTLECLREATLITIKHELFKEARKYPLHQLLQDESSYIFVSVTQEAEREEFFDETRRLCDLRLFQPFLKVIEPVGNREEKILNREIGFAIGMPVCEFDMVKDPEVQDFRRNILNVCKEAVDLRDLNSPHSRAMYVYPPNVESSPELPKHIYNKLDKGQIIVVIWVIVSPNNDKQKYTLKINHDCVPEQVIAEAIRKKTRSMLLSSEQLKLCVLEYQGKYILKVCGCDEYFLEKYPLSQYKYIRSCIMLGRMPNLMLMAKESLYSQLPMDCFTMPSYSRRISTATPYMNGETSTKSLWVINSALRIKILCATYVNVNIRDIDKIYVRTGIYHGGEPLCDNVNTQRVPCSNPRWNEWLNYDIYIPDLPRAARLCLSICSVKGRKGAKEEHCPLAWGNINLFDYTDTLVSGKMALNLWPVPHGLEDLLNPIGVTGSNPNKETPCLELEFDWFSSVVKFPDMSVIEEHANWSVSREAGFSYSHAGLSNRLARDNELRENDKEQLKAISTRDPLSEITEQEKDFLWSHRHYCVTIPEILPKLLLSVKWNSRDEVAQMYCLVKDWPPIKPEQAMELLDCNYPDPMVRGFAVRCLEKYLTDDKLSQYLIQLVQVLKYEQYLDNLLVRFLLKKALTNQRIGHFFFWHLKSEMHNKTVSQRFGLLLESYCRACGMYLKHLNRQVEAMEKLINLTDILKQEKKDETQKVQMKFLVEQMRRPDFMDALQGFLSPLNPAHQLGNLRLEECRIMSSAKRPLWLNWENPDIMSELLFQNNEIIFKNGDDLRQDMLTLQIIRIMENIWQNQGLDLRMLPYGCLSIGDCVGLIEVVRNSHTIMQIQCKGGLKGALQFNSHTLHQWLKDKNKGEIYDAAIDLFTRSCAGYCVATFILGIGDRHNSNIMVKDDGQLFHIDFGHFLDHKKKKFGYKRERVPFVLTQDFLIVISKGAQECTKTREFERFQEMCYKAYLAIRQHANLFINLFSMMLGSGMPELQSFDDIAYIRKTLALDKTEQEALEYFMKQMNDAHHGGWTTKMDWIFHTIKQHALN
Sequence (P27986 whole entry partner, species assumed): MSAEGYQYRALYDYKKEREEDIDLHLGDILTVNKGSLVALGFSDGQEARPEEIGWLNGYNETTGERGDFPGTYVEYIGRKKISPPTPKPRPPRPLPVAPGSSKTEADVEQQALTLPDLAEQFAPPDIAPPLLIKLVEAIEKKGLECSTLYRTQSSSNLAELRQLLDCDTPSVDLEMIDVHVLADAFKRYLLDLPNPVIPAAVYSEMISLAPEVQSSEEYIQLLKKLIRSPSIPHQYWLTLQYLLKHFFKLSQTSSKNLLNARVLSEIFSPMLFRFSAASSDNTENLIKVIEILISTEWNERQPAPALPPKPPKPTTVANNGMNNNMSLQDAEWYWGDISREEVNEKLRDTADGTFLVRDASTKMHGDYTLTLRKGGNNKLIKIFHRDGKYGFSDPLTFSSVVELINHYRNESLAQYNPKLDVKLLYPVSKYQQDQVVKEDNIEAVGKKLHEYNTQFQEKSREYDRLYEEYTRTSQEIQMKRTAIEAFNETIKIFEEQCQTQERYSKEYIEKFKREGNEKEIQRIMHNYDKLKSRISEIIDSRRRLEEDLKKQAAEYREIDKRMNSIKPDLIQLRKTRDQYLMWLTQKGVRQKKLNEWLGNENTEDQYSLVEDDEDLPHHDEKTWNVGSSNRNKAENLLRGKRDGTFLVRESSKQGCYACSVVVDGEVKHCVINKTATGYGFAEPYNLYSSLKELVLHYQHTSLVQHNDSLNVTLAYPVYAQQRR
Would you kindly list pIC50 for each of these compounds?
One number for each entry, as −log10 of the molar value.

Below are worked cases with known answers.
compound: COc1ccccc1C1C2=C(CC(C)(C)CC2=O)Nc2c1c(C(C)(C)C)nn2-c1ccc(Cl)c(C)c1 (stereo not shown)
assayed.system: PI 3-K alpha (Homo sapiens, UniProt P42336)
pIC50: 5.15

compound: CC1(C)CC(=O)C2=C(C1)Nc1c(c(C(C)(C)C)nn1C(C)(C)C)C2c1ccc(OCc2ccccc2)c(OCc2ccccc2)c1 (stereo not shown)
assayed.system: PI 3-K alpha (Homo sapiens, UniProt P42336)
pIC50: 6.30

compound: Cc1ccc(C2C3=C(CC(C)(C)CC3=O)Nc3c2c(C(C)(C)C)nn3-c2ccc(C)cc2)cc1 (stereo not shown)
assayed.system: PI 3-K alpha (Homo sapiens, UniProt P42336)
pIC50: 6.00

compound: CC1(C)CC(=O)C2=C(C1)Nc1c(c(-c3ccccc3)nn1-c1cccc(F)c1)C2c1ccc(C(F)(F)F)cc1 (stereo not shown)
assayed.system: PI 3-K alpha (Homo sapiens, UniProt P42336)
pIC50: 5.10

compound: COc1ccc(-n2nc(C(C)(C)C)c3c2NC2=C(C(=O)CC(C)(C)C2)C3c2ccccc2Cl)cc1 (stereo not shown)
assayed.system: PI 3-K alpha (Homo sapiens, UniProt P42336)
pIC50: 5.52

compound: CC1(C)CC(=O)C2=C(C1)Nc1c(c(C(C)(C)C)nn1-c1ccc(Cl)c(Cl)c1)C2c1cccc(OCc2ccccc2)c1 (stereo not shown)
assayed.system: PI 3-K alpha (Homo sapiens, UniProt P42336)
pIC50: 5.10

Let's switch to this compound now.
Notebook: pull reported pIC50 for PI 3-K alpha (Homo sapiens, UniProt P42336), entry COc1ccc(OC)c(C2C3=C(CC(C)(C)CC3=O)Nc3c2c(C(C)(C)C)nn3-c2ccc(C)cc2C)c1 (stereo not shown)
5.30

---

Would you kindly list IC50 for each of these compounds?
tested on: tumor cells altered in PI 3-K/PTEN; test: Cellular growth inhibition assays on tumor cells altered in PI 3-K/PTEN; format: cell-based; conditions: approximate; read-out: Approx. mIC50 in cellular assays

compound: CC1(C)CC(=O)C2=C(C1)Nc1c(c(-c3ccccc3)nn1-c1cccc(F)c1)C2c1ccc(C(F)(F)F)cc1 (centres unmarked) [Compound 964661]
IC50: < 20 µM
--
compound: COc1ccccc1C1C2=C(CC(C)(C)CC2=O)Nc2c1c(C(C)(C)C)nn2-c1ccc(Cl)c(C)c1 (centres unmarked) [Compound 964247]
IC50: < 20 µM
--
compound: Cc1ccc(C2C3=C(CC(C)(C)CC3=O)Nc3c2c(C(C)(C)C)nn3-c2cccc(F)c2)cc1 (centres unmarked) [Compound 964352]
IC50: < 20 µM
--
compound: Cc1ccc(C2C3=C(CC(C)(C)CC3=O)Nc3c2c(C(C)(C)C)nn3-c2ccc(C)cc2)cc1 (centres unmarked) [Compound 964028]
IC50: 10 µM
--
compound: COc1ccc(OC)c(C2C3=C(CC(C)(C)CC3=O)Nc3c2c(C(C)(C)C)nn3-c2ccc(C)cc2C)c1 (centres unmarked) [Compound 964232]
IC50: < 20 µM

Give one value of IC50 per listed compound.
1. CC1(C)CC(=O)C2=C(C1)Nc1c(c(-c3ccccc3)nn1-c1ccc(F)cc1)C2c1ccc(C(C)(C)C)cc1 (centres unmarked) [Compound 963924]
2. COc1ccc(-n2nc(C(C)(C)C)c3c2NC2=C(C(=O)CC(C)(C)C2)C3c2ccccc2Cl)cc1 (centres unmarked) [Compound 964076]
3. Cc1cccc(-n2nc(C(C)(C)C)c3c2NC2=C(C(=O)CC(C)(C)C2)C3c2ccc(C(C)(C)C)cc2)c1C (centres unmarked) [Compound 964336]

1. < 20 µM
2. 10 µM
3. < 20 µM

---

System: tumor cells altered in PI 3-K/PTEN
Assay: Cellular growth inhibition assays on tumor cells altered in PI 3-K/PTEN
Format: cell-based
Conditions: approximate; read-out: Approx. mIC50 in cellular assays
Description: The ovarian cancer cell line SKOV3 is not altered in PI 3-K signaling and should be less sensitive to the anti-proliferative effects produced by treatment with PI 3-K inhibitors, while the OVCAR3 cell line, which is altered in PI 3-K signaling, via amplification of PI 3-K activity, should be sensitive. […] Viability was determined using a MTT cell proliferation assay (R and D Systems) and comparison to DMSO alone controls (100% viability). […]
quantity.name: IC50

Below are worked cases with known answers.
molecule: CC1(C)CC(=O)C2=C(C1)Nc1c(c(C(C)(C)C)nn1C(C)(C)C)C2c1ccc(OCc2ccccc2)c(OCc2ccccc2)c1 (stereo not shown)
IC50: 1 µM
--
molecule: COc1cc(OC)cc(C2C3=C(CC(C)(C)CC3=O)Nc3c2c(C(C)(C)C)nn3-c2ccc(Cl)cc2)c1 (stereo not shown)
IC50: < 20 µM
--
molecule: CC1(C)CC(=O)C2=C(C1)Nc1c(c(C(C)(C)C)nn1-c1ccc(Cl)c(Cl)c1)C2c1cccc(OCc2ccccc2)c1 (stereo not shown)
IC50: < 20 µM

Name the reported IC50 value associated with the molecule CCOc1ccc(C2C3=C(CC(C)(C)CC3=O)Nc3c2c(C(C)(C)C)nn3-c2ccc(Cl)cc2)cc1 (stereo not shown)
< 20 µM

Attribution: patent US20070010548A1
